Reference for the values: PubChem BioAssay

- system: Neurogenic locus notch homolog protein 3 (Homo sapiens) (UniProt Q9UM47)
- Sequence (Q9UM47 whole entry, looked up): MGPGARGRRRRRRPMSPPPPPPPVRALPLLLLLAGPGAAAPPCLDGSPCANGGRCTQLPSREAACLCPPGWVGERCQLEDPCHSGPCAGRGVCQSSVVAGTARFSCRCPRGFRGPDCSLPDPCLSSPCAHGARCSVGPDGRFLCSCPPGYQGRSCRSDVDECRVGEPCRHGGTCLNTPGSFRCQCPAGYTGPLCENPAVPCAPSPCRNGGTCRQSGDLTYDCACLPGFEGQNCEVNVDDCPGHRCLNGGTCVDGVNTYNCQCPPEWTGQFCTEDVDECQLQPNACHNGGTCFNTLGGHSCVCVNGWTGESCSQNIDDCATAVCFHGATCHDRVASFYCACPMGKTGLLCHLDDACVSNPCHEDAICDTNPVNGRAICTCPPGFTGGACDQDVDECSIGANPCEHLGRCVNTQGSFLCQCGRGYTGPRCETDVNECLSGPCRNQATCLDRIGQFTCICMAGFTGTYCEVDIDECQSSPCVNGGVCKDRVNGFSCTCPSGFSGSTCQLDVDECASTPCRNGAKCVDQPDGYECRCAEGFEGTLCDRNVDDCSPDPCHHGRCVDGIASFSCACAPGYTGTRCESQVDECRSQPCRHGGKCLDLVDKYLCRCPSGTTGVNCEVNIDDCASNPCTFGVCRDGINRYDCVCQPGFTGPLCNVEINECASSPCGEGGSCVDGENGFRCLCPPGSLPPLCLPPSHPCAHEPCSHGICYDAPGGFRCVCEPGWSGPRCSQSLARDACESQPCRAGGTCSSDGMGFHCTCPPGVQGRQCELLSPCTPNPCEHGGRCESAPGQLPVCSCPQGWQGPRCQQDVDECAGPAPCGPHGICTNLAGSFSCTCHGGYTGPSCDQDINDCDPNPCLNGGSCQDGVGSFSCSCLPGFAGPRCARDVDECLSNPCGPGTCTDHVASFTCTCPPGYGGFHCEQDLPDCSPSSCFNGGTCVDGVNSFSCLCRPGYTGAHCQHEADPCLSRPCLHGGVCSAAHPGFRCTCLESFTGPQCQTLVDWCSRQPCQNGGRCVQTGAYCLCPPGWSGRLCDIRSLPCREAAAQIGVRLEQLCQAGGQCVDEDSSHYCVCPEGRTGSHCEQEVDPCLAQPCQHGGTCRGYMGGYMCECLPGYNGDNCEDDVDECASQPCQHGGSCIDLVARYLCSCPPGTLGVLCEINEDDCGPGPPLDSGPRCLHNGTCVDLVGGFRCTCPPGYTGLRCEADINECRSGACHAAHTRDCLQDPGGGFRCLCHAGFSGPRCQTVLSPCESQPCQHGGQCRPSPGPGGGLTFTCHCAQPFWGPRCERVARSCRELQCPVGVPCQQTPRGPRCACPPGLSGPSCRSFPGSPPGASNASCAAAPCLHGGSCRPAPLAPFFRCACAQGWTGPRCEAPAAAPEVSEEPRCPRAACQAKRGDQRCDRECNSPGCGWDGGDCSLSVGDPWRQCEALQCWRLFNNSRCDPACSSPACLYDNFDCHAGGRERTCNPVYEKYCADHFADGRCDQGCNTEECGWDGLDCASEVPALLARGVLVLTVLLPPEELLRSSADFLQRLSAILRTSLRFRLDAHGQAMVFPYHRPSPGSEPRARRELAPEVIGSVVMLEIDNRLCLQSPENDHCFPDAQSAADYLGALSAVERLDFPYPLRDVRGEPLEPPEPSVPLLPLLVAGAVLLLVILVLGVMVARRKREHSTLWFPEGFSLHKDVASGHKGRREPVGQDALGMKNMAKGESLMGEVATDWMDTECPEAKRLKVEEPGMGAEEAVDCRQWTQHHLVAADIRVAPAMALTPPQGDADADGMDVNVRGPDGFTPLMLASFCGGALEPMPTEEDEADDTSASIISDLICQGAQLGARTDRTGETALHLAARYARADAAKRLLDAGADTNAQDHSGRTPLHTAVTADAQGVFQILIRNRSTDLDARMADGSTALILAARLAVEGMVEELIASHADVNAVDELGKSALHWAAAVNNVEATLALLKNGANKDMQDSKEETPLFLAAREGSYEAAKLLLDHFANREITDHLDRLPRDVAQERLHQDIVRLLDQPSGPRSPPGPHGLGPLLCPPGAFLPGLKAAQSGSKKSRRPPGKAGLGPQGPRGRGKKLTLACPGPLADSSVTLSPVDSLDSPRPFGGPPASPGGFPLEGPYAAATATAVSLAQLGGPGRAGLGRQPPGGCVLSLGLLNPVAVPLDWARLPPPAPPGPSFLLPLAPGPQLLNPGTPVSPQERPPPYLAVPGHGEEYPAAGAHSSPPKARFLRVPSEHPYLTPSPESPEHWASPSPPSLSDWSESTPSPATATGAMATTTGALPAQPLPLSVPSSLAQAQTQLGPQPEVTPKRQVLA
- assay-text: small molecules binding NOTCH3 protein – biochemical, 635/667 nm fluorescence, primary screen (AID 1096)
- experimental-context: small-molecule microarray, 635 nm fluorescence, higher = more signal
reported-endpoint: composite z-score

{"compound": "O=C1C2C=CC(C(O)C3CCCCC3)N(n3cnnc3)C2C(=O)N1Cc1ccccc1 (centres undefined)", "system": "Neurogenic locus notch homolog protein 3 (Homo sapiens) (UniProt Q9UM47)", "endpoint-result": 1.06}
{"compound": "CO[C@H]1O[C@H](CO)[C@@H](OC(=O)Nc2ccccc2-c2ccccc2)[C@H](OC(=O)Nc2ccccc2)[C@H]1OC(=O)Nc1ccccc1", "system": "Neurogenic locus notch homolog protein 3 (Homo sapiens) (UniProt Q9UM47)", "endpoint-result": 1.1}
{"compound": "CN(C)C(=O)[C@@]1(Cc2ccccc2CN=[N+]=[N-])COC(c2ccc(OCCCO)cc2)=N1", "system": "Neurogenic locus notch homolog protein 3 (Homo sapiens) (UniProt Q9UM47)", "endpoint-result": 0.132}
{"compound": "CC1CC/C=C\\[C@H]2OC34C=CCN(Cc5ccccc5)C(=O)[C@H]3N(CCCCCCO)C(=O)[C@@H]4C2C(=O)O1 (some centres undefined)", "system": "Neurogenic locus notch homolog protein 3 (Homo sapiens) (UniProt Q9UM47)", "endpoint-result": -0.397}

====

Property: z-score; scope: individual molecules
- system: Luciferin 4-monooxygenase (Photinus pyralis) (UniProt P08659)
- Sequence (P08659 whole entry, looked up): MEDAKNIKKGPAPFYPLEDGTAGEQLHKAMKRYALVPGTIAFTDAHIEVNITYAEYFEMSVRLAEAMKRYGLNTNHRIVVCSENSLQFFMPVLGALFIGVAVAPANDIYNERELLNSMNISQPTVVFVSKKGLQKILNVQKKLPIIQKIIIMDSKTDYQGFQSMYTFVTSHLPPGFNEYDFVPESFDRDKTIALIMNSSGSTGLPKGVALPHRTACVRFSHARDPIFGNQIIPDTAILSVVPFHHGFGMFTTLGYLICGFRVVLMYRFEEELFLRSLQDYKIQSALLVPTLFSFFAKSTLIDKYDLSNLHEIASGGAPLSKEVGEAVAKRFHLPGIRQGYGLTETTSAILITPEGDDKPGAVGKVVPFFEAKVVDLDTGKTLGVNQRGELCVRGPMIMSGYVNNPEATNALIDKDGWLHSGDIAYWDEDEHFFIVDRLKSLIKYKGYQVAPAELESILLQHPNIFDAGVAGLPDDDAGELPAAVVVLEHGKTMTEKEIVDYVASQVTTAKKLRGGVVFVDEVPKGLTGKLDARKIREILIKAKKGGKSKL
- assay-text: inhibition of purified Photinus pyralis luciferase – biochemical, luminescence, purified enzyme, 2006 set, primary screen (AID 1141);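 also: cell-free assay with purified firefly luciferase at 100 ng per well in PBS; test concentration not given here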
- experimental-context: purified firefly luciferase, SteadyGlo luminescence, 30 min; higher = more signal, called active from +8 up or from −8 down

{"molecule": "COc1ccc([Si](C)(C)[C@H]2[C@H](CC(=O)N3CCC[C@H]3CO)O[C@@]3(C(=O)N(Cc4ccc(N5CCCCC5=O)cc4)c4ccccc43)[C@@H]2C)cc1", "z-score": 0.627}
{"molecule": "Cc1ccccc1C(O)C1C=CC2C(=O)N(c3ccccc3)C(=O)C2N1Nc1ccccc1 (configuration not stated)", "z-score": -0.818}
{"molecule": "C[C@@H]1ON(c2ccccc2)[C@H](c2ccccc2)[C@H]1C(=O)O", "z-score": -0.0018}
{"molecule": "[N-]=[N+]=Nc1ccccc1C[C@]1(C(=O)N2CCOCC2)N=C(c2ccc(OCCCO)cc2)O[C@H]1c1ccccc1N=[N+]=[N-]", "z-score": -4.36}
{"molecule": "C=C(C)[C@@H]1CC=C(C(O)C2C=CC3C(=O)N(C)C(=O)C3N2Nc2ccc([N+](=O)[O-])cc2[N+](=O)[O-])CC1 (some centres not stated)", "z-score": 0.511}
{"molecule": "CCCCC(=C=CC[C@H](O)c1ccc(CO)o1)CCO", "z-score": -0.783}
{"molecule": "COCCOC(=O)N1C(=O)[C@@]2(c3cc(C#CCCO)ccc31)[C@H](C(N)=O)[C@H]1C(=O)O[C@H](c3ccccc3)[C@H](c3ccccc3)N1[C@@H]2c1ccccc1OCCO", "z-score": -0.683}

====

- assay-text: probe aLAP1 signal on lysate-treated microarray – cell lysate, small-molecule microarray, COS7 lysate, primary screen (AID 1124);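 also: lysate comes from COS7 cells expressing LAP1 and is applied at 0.3 µg/mL; score merges spot fluorescence near 667 nm with signal-to-noise over triplicate slides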
- experimental-context: probe aLAP1, fluorescence, higher = more signal
This section presents compounds with their documented composite z-score values.
reported-endpoint: composite z-score

{"compound": "CN(C)CCCC[C@@H]1NC(=O)[C@@H]2C[C@H](C(=O)NCCCCCCNC(=O)CS)[C@H](c3ccc(O)cc3)N2C1=O", "reported-endpoint": "composite z-score", "endpoint-result": 0.338}
{"compound": "COc1ccc(C(O)C2C=CC3C(=O)N(c4ccccc4)C(=O)C3N2Nc2ccc([N+](=O)[O-])cc2)c2ccccc12 (stereo not drawn)", "reported-endpoint": "composite z-score", "endpoint-result": 1.44}
{"compound": "C=CCOC(=O)[C@H]1[C@@H]2C(=O)O[C@@H](c3ccccc3)[C@@H](c3ccccc3)N2[C@@H](c2ccc(OCCOC(=O)[C@@H]3C[C@@H]4C(=O)N[C@@H](CCCCNC(C)=O)C(=O)N4[C@@H]3c3cccc(OCCO)c3)cc2)[C@]12C(=O)Nc1ccccc12", "reported-endpoint": "composite z-score", "endpoint-result": 0.352}

====

- system: Calmodulin-1 (Homo sapiens) (UniProt P0DP23)
- assay-text: small molecules binding Ca-loaded calmodulin-1 – biochemical, small-molecule microarray, Cy5-labelled CALM1, plus calcium, artefact control for SMM control-protein annotation, profiling panel (AID 1112);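 also: score merges spot fluorescence with signal to noise from triplicate slides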
- experimental-context: Cy5-CALM1 binding fluorescence, higher = more signal

{"compound": "O=C1C=C(c2ccccc2)C(=O)C2=C1CC([C@H]1Oc3ccccc3S(=O)(=O)N3CCC[C@@H]13)=CC2", "composite z-score": -0.207}
{"compound": "O=C(N1CCOCC1)[C@@]1(Cc2ccccc2)COC(c2ccc(OCCCO)cc2)=N1", "composite z-score": 0.83}
{"compound": "COC(=O)C(CC#Cc1ccc2c(c1)[C@]1(C(=O)N2)[C@H](c2ccccc2OCCO)N2[C@H](c3ccccc3)[C@H](c3ccccc3)OC(=O)[C@H]2[C@@H]1C(=O)N1CCc2cc(OC)c(OC)cc2C1)C(=O)OC", "composite z-score": -0.34}
{"compound": "CC(C)NC(=O)[C@@]1(c2ccc([N+](=O)[O-])cc2)CC(=O)N(CC23CC4CC(CC(C4)C2)C3)[C@@H]1c1ccc(CO)cc1", "composite z-score": -0.0022}
{"compound": "CC=CC(O)C1C=CC2C(=O)NC(=O)C2N1Nc1ccc(Cl)cc1Cl (stereo unspecified)", "composite z-score": 0.0224}
{"compound": "COCCCNC(=O)[C@@H]1c2ccccc2C(=O)N(Cc2ccc(OC(F)(F)F)cc2)[C@H]1c1ccc(CO)cc1", "composite z-score": -0.269}

====

- assay-text: optical density shifts of acrAB sulA E. coli – strain DRC41, OD650, 48 h, E. coli filamentation inducer project, primary screen (AID 1152);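 also: E. coli MC1000 strain DRC41 lacking acrAB efflux pump and sulA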
- experimental-context: higher = more signal, called active from +8 up or from −8 down
reported-endpoint: z-score

{"compound": "COC(=O)[C@@]1(Cc2ccc(OC)cc2)[C@H]2c3cc(C(=O)N4CCCC4)n(CCn4cc([N+](=O)[O-])nc4C)c3C[C@H]2CN1C(=O)c1ccccc1", "reported-endpoint": "z-score", "endpoint-result": -2.21}
{"compound": "C=C(COC)C(=O)CC[C@@H](OC(=O)c1ccccc1-c1ccccc1C(=O)O)c1ccc(OCCO)cc1", "reported-endpoint": "z-score", "endpoint-result": -0.172}
{"compound": "[N-]=[N+]=NCc1ccccc1[C@@H]1OC(c2ccc(OCCCO)cc2)=N[C@]1(Cc1ccccc1N=[N+]=[N-])C(=O)NCC(O)CO (some centres undefined)", "reported-endpoint": "z-score", "endpoint-result": 0.553}
{"compound": "COc1cc(OC)c(C(O)C2C=CC3C(=O)N(c4ccccc4)C(=O)C3N2Nc2ccc(C(C)C)cc2)cc1Br (centres undefined)", "reported-endpoint": "z-score", "endpoint-result": 0.857}
{"compound": "O=C(NC1CC1)[C@@H]1c2ccccc2C(=O)N(CC23CC4CC(CC(C4)C2)C3)[C@H]1c1ccc(CO)cc1", "reported-endpoint": "z-score", "endpoint-result": 0.268}
{"compound": "COc1ccc([Si](C)(C)[C@@H]2[C@@H](CC(=O)N3Cc4ccccc4C[C@H]3CO)O[C@]3(C(=O)N(Cc4ccc(N5CCOC5=O)cc4)c4ccccc43)[C@H]2C)cc1", "reported-endpoint": "z-score", "endpoint-result": 0.378}
{"compound": "COC(=O)[C@]1(CCC(=O)OC(C)(C)C)N=C(c2ccc(OCCCO)cc2)O[C@@H]1c1ccccc1N=[N+]=[N-]", "reported-endpoint": "z-score", "endpoint-result": -0.725}
{"compound": "COC(=O)[C@@]1(Cc2ccccc2)[C@H]2c3cc(C(=O)N(C)C)n(Cc4ccc(S(C)(=O)=O)cc4)c3C[C@H]2CN1C(=O)c1ccccc1", "reported-endpoint": "z-score", "endpoint-result": -1.77}
{"compound": "Cc1ccc(S[C@]2(C(=O)NC(C)C)CC(=O)N(C3CCCCC3)[C@@H]2c2ccc(CO)cc2I)cc1", "reported-endpoint": "z-score", "endpoint-result": 0.497}
{"compound": "COC(=O)C(CC#Cc1ccc2c(c1)[C@]1(C(=O)N2)[C@H](C(=O)N2CCc3cc(OC)c(OC)cc3C2)[C@H]2C(=O)O[C@H](c3ccccc3)[C@H](c3ccccc3)N2[C@@H]1c1ccccc1OCCO)C(=O)OC", "reported-endpoint": "z-score", "endpoint-result": 0.113}
{"compound": "C=C(COC)C(=O)CC[C@@H](OC(C)=O)c1ccccc1OCCO", "reported-endpoint": "z-score", "endpoint-result": 0.929}
{"compound": "COc1ccc(C#Cc2ccc3c(c2)[C@]2(C(=O)N3)[C@H](C(=O)O)[C@H]3C(=O)O[C@H](c4ccccc4)[C@H](c4ccccc4)N3[C@@H]2c2ccccc2OCCO)cc1", "reported-endpoint": "z-score", "endpoint-result": 0.987}
{"compound": "CC1CC/C=C\\[C@H]2OC34C=CCN(c5ccc(Cl)cc5)C(=O)[C@H]3N(CCCCCCO)C(=O)[C@]4(C)C2C(=O)O1 (some centres undefined)", "reported-endpoint": "z-score", "endpoint-result": 0.348}
{"compound": "C[C@@H]1ON(c2ccc(I)cc2)[C@H](c2cccc(NC(=O)OCC3c4ccccc4-c4ccccc43)c2)[C@H]1C(=O)N1C(=O)OC[C@H]1Cc1ccccc1", "reported-endpoint": "z-score", "endpoint-result": 1.26}
